Values compiled from paper PMC12692968.

- Tested on: human cervical squamous cell carcinoma cell line SiHa
- measurement protocol: CCK-8 cytotoxicity assay, SiHa cells
- Assay type: cell-based
- conditions used: Homo sapiens, SiHa; CCK-8, 48 h incubation, mean ± SD, n = 3
quantity: pIC50
Just the number, please; pIC50 means minus log10 of the concentration in mol/L.

Solved cases (5 shown):
compound="O=C(Nc1ccc(C(=O)/C=C/c2ccco2)cc1)Nc1ccc(Cl)c(C(F)(F)F)c1 [Compound 2m]" quantity=pIC50 readout_number=5.19
compound="COc1cc(/C=C/C(=O)c2ccc(NC(=O)Nc3ccc(Cl)c(C(F)(F)F)c3)cc2)cc(OC)c1 [Compound 2h]" quantity=pIC50 readout_number=5.52
compound="COc1ccc(/C=C/C(=O)c2ccc(NC(=O)Nc3ccc(Cl)c(C(F)(F)F)c3)cc2)c(OC)c1OC [Compound 2j]" quantity=pIC50 readout_number=5.18
compound="O=C(Nc1ccc(C(=O)/C=C/c2ccc(F)cc2)cc1)Nc1ccc(Cl)c(C(F)(F)F)c1 [Compound 2c]" quantity=pIC50 readout_number=5.99
compound="COc1ccc(/C=C/C(=O)c2ccc(NC(=O)Nc3ccc(Cl)c(C(F)(F)F)c3)cc2)cc1 [Compound 2b]" quantity=pIC50 readout_number=5.26

Task item: For the compound Cc1ccc(/C=C/C(=O)c2ccc(NC(=O)Nc3ccc(Cl)c(C(F)(F)F)c3)cc2)cc1C [Compound 2k] , report pIC50.
Reply: 5.08

Task item: For the compound O=C(Nc1ccc(C(=O)/C=C/c2ccc(Cl)cc2)cc1)Nc1ccc(Cl)c(C(F)(F)F)c1 [Compound 2d] , report pIC50.
Reply: 5.32

* * *

Recorded IC50 for the following compounds
- Test system: human chronic myeloid leukemia cell line K562
- measurement protocol: CCK-8 cytotoxicity assay, K562 cells
- Format: cell-based
- conditions used: Homo sapiens, K562, 48 h, CCK-8, 48 h incubation, mean ± SD, n = 3
// return numeric value only (unit: µM, not printed)

structure_string=O=C(Nc1ccc(C(=O)/C=C/c2cccs2)cc1)Nc1ccc(Cl)c(C(F)(F)F)c1 quantity=IC50 result_units=µM readout_number=15.2
structure_string=COc1cc(/C=C/C(=O)c2ccc(NC(=O)Nc3ccc(Cl)c(C(F)(F)F)c3)cc2)ccc1O quantity=IC50 result_units=µM readout_number=3.42

Task item: For the compound O=C(Nc1ccc(C(=O)/C=C/c2ccco2)cc1)Nc1ccc(Cl)c(C(F)(F)F)c1 , report IC50.
Reply: 8.95

* * *

Recorded pIC50 for the following compounds
- Test system: human cervical squamous cell carcinoma cell line SiHa
- measurement protocol: CCK-8 cytotoxicity assay, SiHa cells
- Format: cell-based
- conditions used: Homo sapiens, SiHa; CCK-8, 48 h incubation, mean ± SD, n = 3
Just the number, please; pIC50 means minus log10 of the concentration in mol/L.

structure_string=COc1ccc(/C=C/C(=O)c2ccc(NC(=O)Nc3ccc(Cl)c(C(F)(F)F)c3)cc2)cc1O readout_number=5.91
structure_string=O=C(Nc1ccc(C(=O)C=Cc2ccccc2)cc1)Nc1ccc(Cl)c(C(F)(F)F)c1 readout_number=5.35
structure_string=CCc1ccc(/C=C/C(=O)c2ccc(NC(=O)Nc3ccc(Cl)c(C(F)(F)F)c3)cc2)cc1 readout_number=5.10
structure_string=COc1cc(/C=C/C(=O)c2ccc(NC(=O)Nc3ccc(Cl)c(C(F)(F)F)c3)cc2)ccc1O readout_number=5.37
structure_string=O=C(Nc1ccc(C(=O)/C=C/c2cccc(Cl)c2)cc1)Nc1ccc(Cl)c(C(F)(F)F)c1 readout_number=5.33

Proceeding to the next compound to report its pIC50.
Task item: For the compound O=C(Nc1ccc(C(=O)/C=C/c2ccc(O)cc2)cc1)Nc1ccc(Cl)c(C(F)(F)F)c1 , report pIC50.
Reply: 5.05

* * *

- Test system: human chronic myeloid leukemia cell line K562
- measurement protocol: CCK-8 cytotoxicity assay, K562 cells
- Type: cell-based
- conditions used: Homo sapiens, K562, 48 h, CCK-8, 48 h incubation, mean ± SD, n = 3
Mark T for IC50 under 4000 nM, F if at or over.

Example entries and their recorded answers appear below.
structure_string=O=C(Nc1ccc(C(=O)/C=C/c2cc(F)cc(F)c2)cc1)Nc1ccc(Cl)c(C(F)(F)F)c1 system_name="human chronic myeloid leukemia cell line K562" class_assignment=T
structure_string=Cc1ccc(/C=C/C(=O)c2ccc(NC(=O)Nc3ccc(Cl)c(C(F)(F)F)c3)cc2)cc1C system_name="human chronic myeloid leukemia cell line K562" class_assignment=T
structure_string=O=C(Nc1ccc(C(=O)/C=C/c2ccc(O)cc2)cc1)Nc1ccc(Cl)c(C(F)(F)F)c1 system_name="human chronic myeloid leukemia cell line K562" class_assignment=F

Task item: In the record for CCc1ccc(/C=C/C(=O)c2ccc(NC(=O)Nc3ccc(Cl)c(C(F)(F)F)c3)cc2)cc1 , is IC50 less than 4000 nM?
Reply: F

Task item: In the record for O=C(Nc1ccc(C(=O)/C=C/c2ccc(F)cc2)cc1)Nc1ccc(Cl)c(C(F)(F)F)c1 , is IC50 less than 4000 nM?
Reply: T

Task item: In the record for COc1cc(/C=C/C(=O)c2ccc(NC(=O)Nc3ccc(Cl)c(C(F)(F)F)c3)cc2)cc(OC)c1O , is IC50 less than 4000 nM?
Reply: T

Task item: In the record for COc1ccc(/C=C/C(=O)c2ccc(NC(=O)Nc3ccc(Cl)c(C(F)(F)F)c3)cc2)cc1 , is IC50 less than 4000 nM?
Reply: F

Task item: In the record for O=C(Nc1ccc(C(=O)/C=C/c2cccc(Cl)c2)cc1)Nc1ccc(Cl)c(C(F)(F)F)c1 , is IC50 less than 4000 nM?
Reply: T

Task item: In the record for Cc1ccc(/C=C/C(=O)c2ccc(NC(=O)Nc3ccc(Cl)c(C(F)(F)F)c3)cc2)cc1 , is IC50 less than 4000 nM?
Reply: F

Task item: In the record for O=C(Nc1ccc(C(=O)C=Cc2ccccc2)cc1)Nc1ccc(Cl)c(C(F)(F)F)c1 , is IC50 less than 4000 nM?
Reply: F

Task item: In the record for COc1ccc(/C=C/C(=O)c2ccc(NC(=O)Nc3ccc(Cl)c(C(F)(F)F)c3)cc2)cc1O , is IC50 less than 4000 nM?
Reply: T

* * *

- System: mouse melanoma cell line B16
- measurement protocol: CCK-8 cytotoxicity assay, B16 cells
- Assay type: cell-based
- conditions used: Mus musculus, B16, 48 h, CCK-8, 48 h incubation, mean ± SD, n = 3
Recorded IC50 for the following molecules
// return numeric value only (unit: µM, not printed)

Task item: Given COc1ccc(/C=C/C(=O)c2ccc(NC(=O)Nc3ccc(Cl)c(C(F)(F)F)c3)cc2)c(OC)c1OC [Compound 2j] , report its IC50 on mouse melanoma cell line B16.
Reply: 9.73

Task item: Given O=C(Nc1ccc(C(=O)C=Cc2ccccc2)cc1)Nc1ccc(Cl)c(C(F)(F)F)c1 [Compound 2a] , report its IC50 on mouse melanoma cell line B16.
Reply: 10.7

Task item: Given COc1ccc(/C=C/C(=O)c2ccc(NC(=O)Nc3ccc(Cl)c(C(F)(F)F)c3)cc2)cc1O [Compound 2o] , report its IC50 on mouse melanoma cell line B16.
Reply: 3.06

* * *

- measurement protocol: CCK-8 cytotoxicity assay, HK-2 cells
- Format: cell-based, human
- conditions used: human (HK-2), mouse (B16), HK-2 cells versus B16 cells; HK-2 vs B16; read-out: selectivity toward B16, fold decrease in cytotoxicity against HK-2
- Method: The cytotoxicity of synthesized compounds against HK-2 cells was also detected. […] The SiHa, K562, B16 and HK-2 cells were obtained from Wuhan Pricella Biotechnology Co., Ltd. (Wuhan, China). […] The absorbance of each well was measured at 450 nm using an enzyme-linked immunosorbent assay (ELISA) reader. […] The inhibition rate of cancer cells was calculated using the Formula (1). The half-maximal inhibitory concentration (IC50) value was calculated using GraphPad Prism 8.0 software.
quantity: selectivity ratio at 48 h
Please give only the number in your answer, with no unit.

Task item: For the molecule O=C(Nc1ccc(C(=O)/C=C/c2cc(F)cc(F)c2)cc1)Nc1ccc(Cl)c(C(F)(F)F)c1 , report selectivity ratio at 48 h.
Reply: 18.2

* * *

Let's go through some IC50 measurements on VEGFR-2 (KDR) protein kinase (Homo sapiens, UniProt P35968) together.
Sequence (P35968 20-1356): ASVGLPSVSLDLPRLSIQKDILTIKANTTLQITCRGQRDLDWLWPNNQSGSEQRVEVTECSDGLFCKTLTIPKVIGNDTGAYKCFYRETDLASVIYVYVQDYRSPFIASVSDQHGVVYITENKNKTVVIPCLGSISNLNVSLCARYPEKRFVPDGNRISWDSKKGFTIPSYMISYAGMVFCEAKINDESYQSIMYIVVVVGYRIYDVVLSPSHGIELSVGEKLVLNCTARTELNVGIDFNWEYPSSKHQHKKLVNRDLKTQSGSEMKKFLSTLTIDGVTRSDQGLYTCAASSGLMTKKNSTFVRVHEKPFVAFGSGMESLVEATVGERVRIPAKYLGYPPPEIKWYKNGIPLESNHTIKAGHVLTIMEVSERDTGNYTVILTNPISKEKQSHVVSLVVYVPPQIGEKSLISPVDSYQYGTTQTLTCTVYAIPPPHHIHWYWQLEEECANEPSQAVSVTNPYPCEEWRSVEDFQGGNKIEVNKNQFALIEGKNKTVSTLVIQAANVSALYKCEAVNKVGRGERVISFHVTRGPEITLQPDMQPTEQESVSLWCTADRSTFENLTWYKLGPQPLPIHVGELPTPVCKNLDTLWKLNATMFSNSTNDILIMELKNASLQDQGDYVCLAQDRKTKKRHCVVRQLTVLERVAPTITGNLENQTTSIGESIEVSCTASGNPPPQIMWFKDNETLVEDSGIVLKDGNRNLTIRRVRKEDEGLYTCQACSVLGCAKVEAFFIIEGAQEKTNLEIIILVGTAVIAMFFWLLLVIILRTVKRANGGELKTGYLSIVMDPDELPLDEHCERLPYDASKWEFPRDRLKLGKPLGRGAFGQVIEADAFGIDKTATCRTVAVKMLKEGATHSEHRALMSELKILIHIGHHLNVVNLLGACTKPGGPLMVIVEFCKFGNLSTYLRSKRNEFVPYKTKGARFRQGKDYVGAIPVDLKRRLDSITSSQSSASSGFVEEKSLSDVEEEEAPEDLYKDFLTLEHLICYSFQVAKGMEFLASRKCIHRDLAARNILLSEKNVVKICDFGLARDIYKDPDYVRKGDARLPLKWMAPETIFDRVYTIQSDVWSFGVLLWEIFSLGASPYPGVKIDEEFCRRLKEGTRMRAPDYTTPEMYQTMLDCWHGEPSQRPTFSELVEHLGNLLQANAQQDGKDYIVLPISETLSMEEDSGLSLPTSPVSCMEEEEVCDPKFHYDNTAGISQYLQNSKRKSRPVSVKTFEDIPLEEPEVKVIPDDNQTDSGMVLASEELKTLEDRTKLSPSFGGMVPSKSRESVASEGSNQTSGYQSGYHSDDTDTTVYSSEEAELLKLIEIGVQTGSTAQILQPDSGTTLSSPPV
// return numeric value only (unit: nM, not printed)

Solved cases (3 shown):
structure_string=O=C(Nc1ccc(C(=O)/C=C/c2cccs2)cc1)Nc1ccc(Cl)c(C(F)(F)F)c1 result_units=nM readout_number=2200
structure_string=O=C(Nc1ccc(C(=O)/C=C/c2ccc(O)c(O)c2)cc1)Nc1ccc(Cl)c(C(F)(F)F)c1 result_units=nM readout_number=550
structure_string=O=C(Nc1ccc(C(=O)/C=C/c2ccc(F)cc2)cc1)Nc1ccc(Cl)c(C(F)(F)F)c1 result_units=nM readout_number=680

Task item: For the compound COc1ccc(/C=C/C(=O)c2ccc(NC(=O)Nc3ccc(Cl)c(C(F)(F)F)c3)cc2)cc1O , report IC50.
Reply: 310

Task item: For the compound COc1cc(/C=C/C(=O)c2ccc(NC(=O)Nc3ccc(Cl)c(C(F)(F)F)c3)cc2)cc(OC)c1OC , report IC50.
Reply: 390

Task item: For the compound O=C(Nc1ccc(C(=O)/C=C/c2cc(F)cc(F)c2)cc1)Nc1ccc(Cl)c(C(F)(F)F)c1 , report IC50.
Reply: 420
